The reported numbers originate from PubChem BioAssay (NCATS).

Test: Validation screen for small molecules that induce genotoxicity in human embryonic kidney (HEK293T) cells expressing luciferase-tagged ELG1 (AID 493106)
Details: luminescence; series mostly up to 46.1 µM
Records with an inconclusive call do not appear. Calls of active or inactive are those of the source. The call rests on the fitted dose curve; in most records, active means well fitted activation curve with a large enough effect; inconclusive means small, poorly fitted or top-dose-only effect; inactive means no such curve, though single readings can be large or run the other way.
Tick one outcome: Y (active), N (inactive)

Data request: Could you check what this test reported for CCN(CC)C(=O)c1ccc(O)c(OC)c1 ?
Data returned: N

Data request: Could you check what this test reported for CC(=O)CCCCn1c(=O)c2c(ncn2C)n(C)c1=O ?
Data returned: N

Data request: Could you check what this test reported for CC(=O)c1ccc(S(=O)(=O)NC(=O)NC2CCCCC2)cc1 ?
Data returned: N

Data request: Could you check what this test reported for CC(=O)O[C@]1(C(C)=O)CC[C@H]2[C@@H]3C=C(Cl)C4=CC(=O)[C@@H]5C[C@@H]5[C@]4(C)[C@H]3CC[C@@]21C ?
Data returned: N

Data request: Could you check what this test reported for CC(C)NCC(O)COc1cccc2[nH]ccc12 (configuration not stated) ?
Data returned: N

Data request: Could you check what this test reported for C[N+](C)(C)CCCCCC[N+](C)(C)C ?
Data returned: N

Data request: Could you check what this test reported for CC1(C)CCC2=C(O1)c1ccccc1C(=O)C2=O ?
Data returned: N

Data request: Could you check what this test reported for COc1cccc(-c2cc(=O)c3ccccc3o2)c1N ?
Data returned: Y

Data request: Could you check what this test reported for CCN(CC)CCNC(=O)c1ccc(N)cc1 ?
Data returned: N

Data request: Could you check what this test reported for CCCCCN(C)CCC(O)(P(=O)(O)O)P(=O)(O)O ?
Data returned: N

Data request: Could you check what this test reported for CC/C(=C(\c1ccccc1)c1ccc(OCCN(C)C)cc1)c1ccccc1 ?
Data returned: N

Data request: Could you check what this test reported for CCCCC1C(=O)N(c2ccccc2)N(c2ccccc2)C1=O ?
Data returned: N

Data request: Could you check what this test reported for O=c1c(-c2ccc(O)cc2)coc2cc(O)ccc12 ?
Data returned: Y

Data request: Could you check what this test reported for CC(C)(C)c1ccc(C(O)CCCN2CCC(C(O)(c3ccccc3)c3ccccc3)CC2)cc1 (configuration not stated) ?
Data returned: N

Data request: Could you check what this test reported for Clc1ccc(Cn2c(CN3CCCC3)nc3ccccc32)cc1 ?
Data returned: N

Data request: Could you check what this test reported for COc1ccc(Cc2nccc3cc(OC)c(OC)cc23)cc1OC ?
Data returned: N

Data request: Could you check what this test reported for O=C1NC(=O)C(c2ccccc2)(c2ccccc2)N1 ?
Data returned: N

----------
Assay: qHTS of pediatric cancer cell lines to identify multiple opportunities for drug repurposing: Confirmatory screen for SK-N-SH cells (AID 1347129);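 further: cells exposed to compound for 48 h before viability read; nearly all actives have a fitted effect of over 60% in size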
Conditions: SK-N-SH neuroblastoma cell viability; series mostly up to 46.1 µM
Records with an inconclusive call do not appear. Calls of active or inactive are those of the source. Calls come from the whole dose curve; as a rule, active = well fitted cell-killing curve with a large enough effect; inconclusive = small, poorly fitted or top-dose-only effect; inactive = flat fitted curve, though single readings scatter.
Tick one outcome: active, inactive

Data request: Could you check what this test reported for Nc1ncnc2c1ncn2[C@@H]1O[C@@H](CO)[C@H](O)[C@H]1O ?
Data returned: inactive

Data request: Could you check what this test reported for OC[C@H]1O[C@@H](n2cnc3c2NC=NC[C@@H]3O)C[C@H]1O ?
Data returned: inactive

Data request: Could you check what this test reported for CC[C@]1(O)C[C@@H]2CN(CCc3c([nH]c4ccccc34)[C@@](C(=O)OC)(c3cc4c(cc3OC)N(C=O)[C@@H]3C45CCN4CC=C[C@](CC)([C@H]45)[C@@H](OC(C)=O)[C@]3(O)C(=O)OC)C2)C1 (some centres undefined) ?
Data returned: inactive

Data request: Could you check what this test reported for COc1cc2nc(-c3ccc(N4CCN(C)CC4)cc3)nc(NCCN3CCOCC3)c2cc1OC ?
Data returned: active
